Where these numbers come from: paper PMC12040169

experiment: in vitro; conditions: human, hela cells, % viability
MEASUREMENT_LABEL: viability at 28.5 h, 10 µM (%)
Report as a plain number; the unit % is understood.

INSERT INTO assay_data (molecule, endpoint_value) VALUES
  ('COc1cccc(CC(=O)Nc2ncccc2OCCCC#N)c1', 88);

Q: Tell me viability at 28.5 h, 10 µM reported for COc1cccc(CCN2C(=O)CC3(C2=O)C(=O)N(C)c2ccc(OC)cc23)c1 (centres unmarked)
A: 94.6

Q: Let me know recorded viability at 28.5 h, 10 µM for CC(C)CC(NC(=O)C1CCC(C)CC1)C(=O)O (centres unmarked) , thanks.
A: 88.2

---

test: in vitro; conditions: human, hela cells, % viability
MEASUREMENT_LABEL: viability at 28.5 h, 10 µM (%)
Number only, in %; omit the unit.

INSERT INTO assay_data (compound, measurement_label, units_of_measure, endpoint_value) VALUES
  ('COc1ccc(OCC(=O)Nc2ccc3c(c2)nc2n3CCN(Cc3ccccc3)C2)cc1 [CBK266989]', 'viability at 28.5 h, 10 µM', '%', 97.6),
  ('CSCCN1CCC(Oc2nccnc2OCCN2C(=O)CCC2=O)CC1 [CBK084351]', 'viability at 28.5 h, 10 µM', '%', 100),
  ('CC(C)c1nnc(SCc2ccc(CSc3nnc(C(C)C)n3N)cc2)n1N [CBK267911]', 'viability at 28.5 h, 10 µM', '%', 101);

Q: Give the measured viability at 28.5 h, 10 µM for O=c1cc(N2CCCC2)cnn1Cc1cscn1 [CBK304635]
A: 84.1

Q: Supply recorded viability at 28.5 h, 10 µM for O=C(N[C@H]1C[C@H](c2nnc(CO)n2C2CC2)C1)c1ccc(Cl)c(F)c1 [CBK307093] here.
A: 91.4

Q: Answer with the recorded viability at 28.5 h, 10 µM of Cn1cc(CN2CCNC(=O)C2c2ccccc2C(F)(F)F)cn1 (stereo not drawn) [CBK306407] only.
A: 90.4

Q: For the compound CCC(C)(C)c1ccc(S(=O)(=O)N(C)CCC#N)cc1 [CBK043395] , report viability at 28.5 h, 10 µM.
A: 118

Q: Assign viability at 28.5 h, 10 µM to the following record: CC(C)(Oc1ccc(F)cc1)C(=O)N1CCC(C(=O)NCCc2ccccc2)C1 (stereo not drawn) [CBK285702]
A: 101

Q: Return value of viability at 28.5 h, 10 µM for input Cn1cc(CN2CCCN(C(=O)c3cc4ccccc4[nH]3)CC2)cn1 [CBK304920] , no commentary.
A: 96

---

test: in vitro; conditions: human, hela cells, % viability
compounds and their reported viability at 28.5 h, 10 µM
Lab note: write values as number then unit, every time.

The cases that follow already have their viability at 28.5 h, 10 µM on record.
INSERT INTO results (compound, endpoint_value) VALUES
  ('CN1CCN(C(=O)CSc2nnc(COc3ccccc3)o2)CC1', '85.4%'),
  ('COc1cc(NC(=O)N(C)C2CCN(C)C2)cc(OC)c1OC (stereo not shown)', '101%'),
  ('COc1ccc(S(=O)(=O)N2CCN(C(=O)c3cc(-c4ccncc4)nc4ccc(Br)cc34)CC2)cc1', '101%');

Shift focus to the following entry.
Q: Dear colleague, please send me the reported viability at 28.5 h, 10 µM for CN1C2CCC1CC(OC(=O)CCN1CCOCC1)C2 (stereo not shown) when you can.
A: 97.4%

---

assay: in vitro; settings: human, hela cells, % viability
Each entry below lists one item and its recorded viability at 28.5 h, 10 µM value.
The reply should contain only the number, in %.

INSERT INTO assay_data (compound, measurement_label, endpoint_value) VALUES
  ('Cc1c(C(N)=O)sc2ncn(CC(=O)NCCc3ccccc3)c(=O)c12 [CBK268514]', 'viability at 28.5 h, 10 µM', 90.4);

Q: Return viability at 28.5 h, 10 µM for the following compound: O=C(Nc1ccccc1[N+](=O)[O-])c1cc(S(=O)(=O)NCc2ccco2)ccc1Cl [CBK264557]
A: 94.4

Q: Indicate its recorded viability at 28.5 h, 10 µM; the compound in question is O=C(O)c1cccc(-c2ccc(/C=N/Nc3ccc([N+](=O)[O-])cn3)o2)c1 [CBK263196]
A: 89.9

Q: Tell me viability at 28.5 h, 10 µM reported for Cc1nnc(SCC(=O)NCCc2ccccc2)nc1O [CBK268045]
A: 92

Q: Give the reported value of viability at 28.5 h, 10 µM for this record: CC(C)Nc1nc2ccccc2nc1SCCN(C)C [CBK103672]
A: 115

Q: State its viability at 28.5 h, 10 µM: CC1(C)Cc2nc(N3CCOCC3)ncc2C(NC(=O)c2cccs2)C1 (stereo not drawn) [CBK307369]
A: 92.7

Q: Please indicate viability at 28.5 h, 10 µM recorded for CC1(C)CCCN(C(=O)CCn2ccc3ccncc32)C1 [CBK285173]
A: 87.3

Q: Specify viability at 28.5 h, 10 µM for O=C(Nc1ncc(-c2ccccc2)s1)c1cccc([N+](=O)[O-])c1 [CBK157055] and stop.
A: 92.7

Q: Tell me measured viability at 28.5 h, 10 µM for CC(C)(C)c1cc(CCC(=O)N2CCN(C(=O)CCc3cc(C(C)(C)C)c(O)c(C(C)(C)C)c3)CC2)cc(C(C)(C)C)c1O [CBK261963] please.
A: 91.1

---

The entries below come with measured viability at 28.5 h, 10 µM values attached.
assay: in vitro; details: human, hela cells, % viability
The response must be a number in % with no trailing unit.

Q: Give the value of viability at 28.5 h, 10 µM reported for the following: Cc1ccc(CCC(=O)C(C#N)c2nc3ccccc3s2)o1 (stereo not drawn)
A: 112

Q: Item "O=c1c2c3nc4ccccc4nc3n(CCc3ccccc3)c2ncn1C1CCCC1" : provide viability at 28.5 h, 10 µM
A: 105

Q: Using known records, supply viability at 28.5 h, 10 µM for "COc1cc(-c2ccc(/N=C/c3ccccc3O)c(OC)c2)ccc1/N=C/c1ccccc1O"
A: 101

Q: Recall and state the measured viability at 28.5 h, 10 µM for "CCNC(=O)Nc1ncc(-c2ccc(C(C)(C)C)cc2)c2cccnc12" .
A: 98.6

Q: For the compound "Cc1ccc(COc2ccc(/C=N/NC(=O)CN3CCCCC3)cc2)cc1" , give its measured viability at 28.5 h, 10 µM value.
A: 103

---

Form field: viability at 28.5 h, 10 µM (one value per entry).
assay: in vitro; details: human, hela cells, % viability
State just the number; it will be interpreted in %.

Below are worked cases with known answers.
INSERT INTO measurements (item_smiles, endpoint_value) VALUES
  ('COc1ccc(C2(C(=O)Nc3ccc(-c4ccccc4OC)cc3)CCOCC2)cc1', 89.5),
  ('O=C(CN1CCCC1)Nc1sc2c(c1C(=O)Nc1ccc(Br)cc1)CCC2', 94.8);

Here is another molecule to look at.
Q: For the molecule "C=CCC1(CC=C)CCN1C(=O)c1cc(-c2c(C)nn(C)c2C)n[nH]1" , give its reported viability at 28.5 h, 10 µM.
A: 82.2

---

experiment: in vitro; settings: human, hela cells, % viability
MEASUREMENT_LABEL: viability at 28.5 h, 10 µM (%)
Give the quantity in %, number only.

Q: Annotate the compound "CC(=O)N[C@@H](CC(C)C)C(=O)Nc1cc(C)nc2ccccc12" with its measured viability at 28.5 h, 10 µM.
A: 94.3

Q: Return viability at 28.5 h, 10 µM for the following compound: COCCc1nsc(N2CCC(Oc3cccnc3N(C)C)C2)n1 (stereo not drawn)
A: 98.8

Q: Item O=S(=O)(CC(F)(F)F)N(c1ccccc1)C1CCNCC1 [CBK165093T] : provide viability at 28.5 h, 10 µM
A: 92.6

Q: Provide one value: measured viability at 28.5 h, 10 µM of "OC[C@H]1O[C@@H](n2cnc3c(Cl)ncnc32)C[C@H]1O"
A: 99.6

Q: Using the record for CC(NC(=O)c1c(Cl)c(Cl)c(Cl)c(Cl)c1C(=O)O)c1cccs1 (stereo not drawn) , state its measured viability at 28.5 h, 10 µM.
A: 107

Q: In one line, give reported viability at 28.5 h, 10 µM of the entry COC(=O)c1ccc2c(c1)[n+](CCO)c(C)n2CCO [CBK262443C] .
A: 88.1

---

Recorded viability at 28.5 h, 10 µM values for a group of compounds are listed next.
assay: in vitro; conditions: human, hela cells, % viability
Express the result in % but write the number alone.

Would you please look over these solved cases?
INSERT INTO results (compound, endpoint_value) VALUES
  ('COc1ccccc1N1CCN(C(=O)CC2(CC(=O)O)CCCC2)CC1', 105),
  ('O[C@@]1(c2ccccn2)CC[C@H]2CN(Cc3ccc(F)c(F)c3)C[C@H]21', 107),
  ('O=C(O)c1ccc(NS(=O)(=O)/C=C/c2ccccc2)cc1', 100),
  ('CCc1nnc(CN2CCCC(c3cc(C(N)=O)[nH]n3)C2)o1 (centres unmarked)', 74.5);

// next item, viability at 28.5 h, 10 µM requested
Q: Output measured viability at 28.5 h, 10 µM for this item: "COc1cc(-c2nc(-c3ccc(Cl)cc3)c(-c3ccccc3)[nH]2)c([N+](=O)[O-])cc1OC"
A: 98.9
